// provenance: paper PMC8809517

# SYSTEM: T1, GFP-9S library array, motif 4 ND N98F;D124G (synthetic construct, N98F;D124G)
# T1 chain: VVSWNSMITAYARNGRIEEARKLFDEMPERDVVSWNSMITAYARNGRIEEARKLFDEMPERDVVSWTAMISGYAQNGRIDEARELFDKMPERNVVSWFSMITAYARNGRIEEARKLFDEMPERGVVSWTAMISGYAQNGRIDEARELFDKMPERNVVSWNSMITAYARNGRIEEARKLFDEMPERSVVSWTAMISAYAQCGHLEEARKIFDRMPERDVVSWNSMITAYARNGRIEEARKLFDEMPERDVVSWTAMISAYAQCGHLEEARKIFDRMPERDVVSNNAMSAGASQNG
# PROCEDURE_SUMMARY: high-throughput RNA pulldown from lysate on Ni-NTA beads; HRP: 50 mM Tris pH 8, 150 mM NaCl, 1 mM beta-mercaptoethanol, 50 ug/ml BSA, 3 ug/ml yeast RNA, 0.5% heparin; ITC and FP: Tris pH 8, 200 mM KCl, 5% glycerol; MST: 50 mM Tris pH 8, 200 mM NaCl, 1 mM DTT, BSA, heparin, 0.05% Tween 20
# MEASUREMENT_SETUP: tags: N-terminal His-eGFP; label: 5' IRDye 800CW
Record form. Attribute: Kd. Fill in for each entry.
Your answer should be a plain number; it is taken to be in nM.

Give reported Kd value for AUUAAACGUGA (ssRNA) [IR-rpoA-A] 139

Give reported Kd value for AUUAUACGUGA (ssRNA) [IR-rpoA-U] 124
